Test: Mouse plasma pharmacokinetics, single PO or IV dose
Format: in vivo, female C57BL/6 mice
Conditions: female, C57BL/6, mouse, plasma; observed in mice; read-out: in vivo clearance (converted)
Text: Studies were undertaken to determine the plasma pharmacokinetics of SJ733 and SJ311. […] The terminal elimination half-life (T1/2) was estimated as 0.693/Kel, and the AUC from time 0 to infinity ([…]) was estimated as the AUC to the last time point (AUClast) + Clast (predicted)/Kel with the AUCinf similarly calculated. […]

{"COMPOUND": "N#Cc1cc(NC(=O)[C@H]2c3ccccc3C(=O)N(CC(F)(F)F)[C@@H]2c2cccnc2)ccc1F (racemic) [SJ733]", "clearance": "~50 mL/min/kg"}

---

assay: Thermodynamic solubility; type: physicochemical; details: 0.1 N HCl, 37 °C, pH 1, simulated gastric fluid, thermodynamic from solid; strongly acidic conditions

{"COMPOUND": "N#Cc1cc(NC(=O)[C@H]2c3ccccc3C(=O)N(CC(F)(F)F)[C@@H]2c2cccnc2)ccc1F (racemic) [SJ733]", "solubility thermodynamic": "> 3 mg/mL"}

---

Recorded measurements of bioavailability, one per entry
experiment: Dog pharmacokinetics, single PO or IV dose; assay type: in vivo, male beagle dogs; conditions: male, beagle, plasma, po, summary over the oral doses studied, read-out: Dog F (oral bioavailability)

{"COMPOUND": "N#Cc1cc(NC(=O)[C@H]2c3ccccc3C(=O)N(CC(F)(F)F)[C@@H]2c2cccnc2)ccc1F (racemic)", "bioavailability": "60 to 100%"}
{"COMPOUND": "N#Cc1cc(NC(=O)[C@H]2c3ccccc3C(=O)N(CC(F)(F)F)[C@@H]2c2cn[nH]c2)ccc1F", "bioavailability": "74 to 78%"}

---

experiment: Rat pharmacokinetics, single PO or IV dose; assay type: in vivo, male Sprague Dawley rats; conditions: male, Sprague Dawley, plasma, IV, isomers and racemate at similar doses, read-out: IV half-lives

{"MOLECULE": "N#Cc1cc(NC(=O)[C@H]2c3ccccc3C(=O)N(CC(F)(F)F)[C@@H]2c2cccnc2)ccc1F (racemic)", "Half-life": "5 to 18 h"}

---

assay: Dog pharmacokinetics, single PO or IV dose; assay type: in vivo, male beagle dogs; settings: male, beagle, plasma, po, dosed orally, read-out: Tmax
OUTCOME MEASURE: Tmax (h)

{"MOLECULE": "N#Cc1cc(NC(=O)[C@H]2c3ccccc3C(=O)N(CC(F)(F)F)[C@@H]2c2cccnc2)ccc1F (racemic)", "OUTCOME MEASURE": "Tmax", "RESULT": 1}
{"MOLECULE": "N#Cc1cc(NC(=O)[C@H]2c3ccccc3C(=O)N(CC(F)(F)F)[C@@H]2c2cn[nH]c2)ccc1F", "OUTCOME MEASURE": "Tmax", "RESULT": 3}

---

test: Microsomal stability, human; assay type: in vitro ADME; settings: human microsomes, 0.8 µM

{"COMPOUND": "N#Cc1cc(NC(=O)[C@H]2c3ccccc3C(=O)N(CC(F)(F)F)[C@@H]2c2cccnc2)ccc1F [(+)-SJ733]", "CENSORING SIGN": "=", "CLint [µl/min/mg protein]": 45.5}
{"COMPOUND": "N#Cc1cc(NC(=O)[C@@H]2c3ccccc3C(=O)N(CC(F)(F)F)[C@H]2c2cn[nH]c2)ccc1F [(−)-SJ311]", "CENSORING SIGN": "<", "CLint [µl/min/mg protein]": 7}
{"COMPOUND": "N#Cc1cc(NC(=O)[C@H]2c3ccccc3C(=O)N(CC(F)(F)F)[C@@H]2c2cn[nH]c2)ccc1F [(+)-SJ311]", "CENSORING SIGN": "<", "CLint [µl/min/mg protein]": 7}
{"COMPOUND": "N#Cc1cc(NC(=O)[C@@H]2c3ccccc3C(=O)N(CC(F)(F)F)[C@H]2c2cccnc2)ccc1F [(-)-SJ733]", "CENSORING SIGN": "=", "CLint [µl/min/mg protein]": 61.7}

Reference for the values: paper PMC7893776
